Hello, the source for this data is ChEMBL document CHEMBL3046326, in case you need it.

Tested on: Trichoplusia ni
Test: Feeding deterrent activity against freshly molted third-instar larval stage of Trichoplusia ni (cabbage looper), Trichoplusia ni at 50 ug/cm'2 after 3 to 5 hr by leaf disk choice bioassay
Format: functional
One threshold, 40%, splits the recorded Activity values: lower ones are true (1), equal or higher ones are false (0).

Some entries whose results are on file:
C=CCOc1ccc(OCC=C)cc1; false (0)
CCCCOc1cccc(OCC)c1; false (0)
COCC[C@@H]1CC=C[C@@H]1OC (racemic); true (1)

Is the reported Activity for COc1ccc(OC)cc1 strictly below 40%?
true (1)

Is the reported Activity for COc1cccc(O)c1 [1-hydroxy-3-methoxybenzene] strictly below 40%?
false (0)

Is the reported Activity for CCCOc1cccc(OCC)c1 strictly below 40%?
false (0)

Is the reported Activity for CC(C)CCOc1ccc(OCCC(C)C)cc1 strictly below 40%?
false (0)

Is the reported Activity for CC(C)CCOCC[C@@H]1CC=C[C@@H]1OCCC(C)C (racemic) strictly below 40%?
false (0)

* * *

Test system: Trichoplusia ni
Experiment: Feeding deterrent activity against freshly molted third-instar larval stage of Trichoplusia ni (cabbage looper), Trichoplusia ni at 50 ug/cm'2 after 3 to 5 hr by leaf disk choice bioassay
Type: functional
Label Yes when Activity is at or above 80%; anything below gets No.

C=CCOc1ccccc1OC; No
C=CCOc1ccccc1OCC=C; No
CCCOc1ccccc1O [1-hydroxy-2-propoxybenzene]; No

Shifting focus to the compound that follows.
Tell me whether Activity is at least 80% here: CCCCO[C@H]1C=CC[C@H]1CCO (racemic)
No

* * *

System: Trichoplusia ni
Experiment: Feeding deterrent activity against freshly molted third-instar larval stage of Trichoplusia ni (cabbage looper), Trichoplusia ni at 50 ug/cm'2 after 3 to 5 hr by leaf disk choice bioassay
Type: functional
Parameter: Activity (%)
Kindly provide the numeric value in % only, without the unit symbol.

Please review the entries below; each comes with its answer.
CCOCC[C@@H]1CC=C[C@@H]1OCC (racemic); -17.8
CCCCCOc1ccccc1OCCCC; 98
CCOc1ccccc1OCC; -2.1

Activity value, target or system Trichoplusia ni, for CCOc1ccccc1OCCC(C)C : 66.9

Activity value, target or system Trichoplusia ni, for CCCOc1ccc(OCCC)cc1 : 96

Activity value, target or system Trichoplusia ni, for CCCCCCCCCO[C@H]1C=CC[C@H]1CCO (racemic) : 45.2

Activity value, target or system Trichoplusia ni, for CC(C)CCOc1ccccc1OCCC(C)C : 69.9

Activity value, target or system Trichoplusia ni, for CCCCCOc1ccccc1OCC : 71

Activity value, target or system Trichoplusia ni, for CCCCOc1cccc(OCCC)c1 : 84.1

Activity value, target or system Trichoplusia ni, for C=CCOc1ccc(OCCCC)cc1 : 84

Activity value, target or system Trichoplusia ni, for CCCCCCCCCO[C@H]1C=CC[C@H]1CCOCCC(C)C (racemic) : 22

* * *

System: Trichoplusia ni
Assay: Feeding deterrent activity against freshly molted third-instar larval stage of Trichoplusia ni (cabbage looper), Trichoplusia ni at 50 ug/cm'2 after 3 to 5 hr by leaf disk choice bioassay
Type: functional
Label Satisfied when Activity is at or above 70%; anything below gets Not satisfied.

Some entries whose results are on file:
CCCCOc1ccccc1OCCC(C)C [1-isopentoxy-2-butoxybenzene]; Not satisfied
COc1ccccc1OC [1,2-DIMETHOXYBENZENE]; Not satisfied
C=CCOc1ccc(OCCC)cc1 [1-allyloxy-4-propoxybenzene]; Satisfied
C=CCOc1ccc(OC)cc1 [1-allyloxy-4-methoxybenzene]; Satisfied
CCCCOc1ccccc1OC [1-methoxy-2-butoxybenzene]; Not satisfied
COc1ccccc1O [GUAIACOL]; Not satisfied
CCCCCOc1cccc(OCCCC)c1 [1-butyloxy-3-pentoxybenzene]; Satisfied
CCCCOCC[C@@H]1CC=C[C@@H]1OCCCC (racemic); Satisfied
C=CCOc1ccccc1OCCC [1-allyloxy-2-propoxybenzene]; Not satisfied
CCCCCOc1ccc(OCCCC)cc1 [1-butyloxy-4-pentoxybenzene]; Satisfied

Tell me whether Activity is at least 70% here: CCCCOc1ccc(OCCC)cc1 [1-butyloxy-4-propoxybenzene]
Satisfied

Tell me whether Activity is at least 70% here: CCOc1ccccc1O [1-hydroxy-2-ethoxybenzene]
Not satisfied

Tell me whether Activity is at least 70% here: CCCOc1ccccc1OCCC [1,2-DIPROPOXYBENZENE]
Not satisfied

Tell me whether Activity is at least 70% here: C=CCOc1ccccc1OCCCC [1-allyloxy-2-butoxybenzene]
Not satisfied

Tell me whether Activity is at least 70% here: CCCOc1ccccc1OC [1-methoxy-2-propoxybenzene]
Not satisfied

Tell me whether Activity is at least 70% here: CCOc1cccc(OCCC(C)C)c1 [1-isopentyloxy-3-ethoxybenzene]
Satisfied

Tell me whether Activity is at least 70% here: CCCCCOc1cccc(OCCC(C)C)c1 [1-isopentyloxy-3-pentoxybenzene]
Satisfied

Tell me whether Activity is at least 70% here: CCCCOc1ccc(OCC)cc1 [1-butyloxy-4-ethoxybenzene]
Satisfied

Tell me whether Activity is at least 70% here: CC(C)CCOc1cccc(O)c1 [1-hydroxy-3-isopentoxybenzene]
Not satisfied

Tell me whether Activity is at least 70% here: CCCCCOc1ccccc1OC [1-methoxy-2-pentoxybenzene]
Not satisfied
